Test system: Nucleic Acid
Test: Binding constant to poly[d(A-T)] by displacement of ethidium bromide
Type: nucleic-acid assay
Reported Log K values are given for each entry in this list.
Hey, just send me the number, nothing else.

Consider the following illustrative entries.
> print(dat)
                               recordsmiles  readoutnumber
1  CN(C)CCNC(=O)c1ccc2c(c1)Oc1ccc(C(=O)NCCN(C)C)cc1O2           6.81
2  CN(C)CCNC(=O)c1cc([N+](=O)[O-])cc2c1Oc1ccccc1O2           5.37
3     CN(C)CCNC(=O)c1cccc2c1Oc1cc(Br)ccc1O2           5.35
4      Cc1cccc2c1Oc1c(cccc1C(=O)NCCN(C)C)O2           5.28
5     COc1cccc2c1Oc1c(cccc1C(=O)NCCN(C)C)O2           5.55

Briefly, Log K measured for "CN(C)CCNC(=O)c1ccc2c(c1)Oc1ccccc1O2" : 4.84

Briefly, Log K measured for "CN(C)CCNC(=O)c1cccc2c1Oc1c(Cl)cccc1O2" : 5.48

Briefly, Log K measured for "CN(C)CCNC(=O)c1cccc2c1Oc1cc([N+](=O)[O-])ccc1O2" : 5.64

Briefly, Log K measured for "CN(C)CCNC(=O)c1cccc2c1Oc1ccc([N+](=O)[O-])cc1O2" : 5.64

Briefly, Log K measured for "Cc1ccc2c(c1)Oc1cccc(C(=O)NCCN(C)C)c1O2" : 5.11

Briefly, Log K measured for "CN(C)CCNC(=O)c1cccc2c1Oc1ccccc1O2" : 5.05
